Test system: 435261-313-R-J1-PDC tumor spheroid viability;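 also: spheroids exposed to compounds for 7 days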
experiment: Anticancer human tumor 435261-313-R-J1-PDC patient-derived colon adenocarcinoma cell line growth inhibition [PI3K]; active = viability on the fitted dose curve at most 10% of control; inactive = the rest
experimental-context: second compound 10 µM; first compound 10 µM; spheroids with HUVEC and MSC
Result category, one only: YES for active, NO for inactive

molecule	group-label
C=CC(=O)N1CCN(c2nc(=O)n(-c3c(C)ccnc3C(C)C)c3nc(-c4c(O)cccc4F)c(F)cc23)C(C)C1 (configuration not stated) + Cc1nc(NC(=O)N2CCCC2C(N)=O)sc1-c1ccnc(C(C)(C)C(F)(F)F)c1	YES
CC(Cn1ccc(-c2ccc(C#N)c(Cl)c2)n1)NC(=O)c1cc(C(C)O)[nH]n1 (configuration not stated) + Cc1nc(NC(=O)N2CCCC2C(N)=O)sc1-c1ccnc(C(C)(C)C(F)(F)F)c1	YES
CC1(C)CCC(Nc2ncc(C(F)(F)F)c(-c3c[nH]c4c(P(C)(C)=O)c(C#N)ccc34)n2)CN1 (configuration not stated) + CC(Nc1ncnc2nc[nH]c12)c1cc2cccc(Cl)c2c(=O)n1-c1ccccc1	YES
CCCS(=O)(=O)Nc1ccc(F)c(C(=O)c2c[nH]c3ncc(-c4ccc(Cl)cc4)cc23)c1F + Cc1nc(NC(=O)N2CCCC2C(N)=O)sc1-c1ccnc(C(C)(C)C(F)(F)F)c1	YES
CNC(=O)c1ccc(N2C(=S)N(c3ccc(C#N)c(C(F)(F)F)c3)C(=O)C2(C)C)cc1F + Cc1nc(NC(=O)N2CCCC2C(N)=O)sc1-c1ccnc(C(C)(C)C(F)(F)F)c1	YES

Which outcome did this test record for the molecule Cn1nccc1Nc1nccc(-c2ccn(C(CO)c3ccc(Cl)c(F)c3)c(=O)c2)n1 (configuration not stated) + CC(Nc1ncnc2nc[nH]c12)c1cc2cccc(Cl)c2c(=O)n1-c1ccccc1 ? NO

Which outcome did this test record for the molecule Cn1ncc(Cl)c1-c1cc(C(=O)NC(CN)Cc2cccc(F)c2)sc1Cl (configuration not stated) + Cc1nc(NC(=O)N2CCCC2C(N)=O)sc1-c1ccnc(C(C)(C)C(F)(F)F)c1 ? YES
